test system: Staphylococcus aureus; experiment: Antibacterial activity against Staphylococcus aureus Newman; type: functional
Experimental readout: MIC

// below: answered compounds
C#CCON=C(c1ccc(C(F)(F)F)cc1)c1cc2c(cc1C(C)C)CC[C@H]1[C@](C)(C(=O)O)CCC[C@]21C | > 50 µg/mL
C/C(=N\O)c1cc2c(cc1C(C)C)CC[C@H]1[C@](C)(C(=O)O)CCC[C@]21C | > 50 µg/mL
CN[C@H](CC(C)C)C(=O)N[C@H]1C(=O)N[C@@H](CC(N)=O)C(=O)N[C@H]2C(=O)N[C@H]3C(=O)N[C@H](C(=O)N[C@H](C(=O)O)c4cc(O)cc(O)c4-c4cc3ccc4O)[C@H](O)c3ccc(c(Cl)c3)Oc3cc2cc(c3O[C@@H]2O[C@H](CO)[C@@H](O)[C@H](O)[C@H]2O[C@H]2C[C@](C)(N)[C@H](O)[C@H](C)O2)Oc2ccc(cc2Cl)[C@H]1O | 0.78 to 1.56 µg/mL

Which MIC is listed for `CC(C)c1cc2c(cc1C(=NO)c1cccc(C(F)(F)F)c1)[C@@]1(C)CCC[C@@](C)(C(=O)O)[C@@H]1CC2` ? 1.56 to 3.13 µg/mL

Which MIC is listed for `CCC(=NO)c1cc2c(cc1C(C)C)CC[C@H]1[C@](C)(C(=O)O)CCC[C@]21C` ? > 50 µg/mL

Which MIC is listed for `C#CCON=C(c1ccccc1)c1cc2c(cc1C(C)C)CC[C@H]1[C@](C)(C(=O)O)CCC[C@]21C` ? 2.5 µg/mL

Which MIC is listed for `CCC(=NOC)c1cc2c(cc1C(C)C)CC[C@H]1[C@](C)(C(=O)O)CCC[C@]21C` ? > 50 µg/mL

Which MIC is listed for `C#CCON=C(c1cc2c(cc1C(C)C)CC[C@H]1[C@](C)(C(=O)O)CCC[C@]21C)c1ccccc1C(F)(F)F` ? 1.56 to 3.13 µg/mL

Which MIC is listed for `C#CCO/N=C(\C)c1cc2c(cc1C(C)C)CC[C@H]1[C@](C)(C(=O)O)CCC[C@]21C` ? > 50 µg/mL

Which MIC is listed for `CON=C(c1ccc(C(F)(F)F)cc1)c1cc2c(cc1C(C)C)CC[C@H]1[C@](C)(C(=O)O)CCC[C@]21C` ? > 50 µg/mL

Which MIC is listed for `C=CCON=C(c1cc2c(cc1C(C)C)CC[C@H]1[C@](C)(C(=O)O)CCC[C@]21C)C1CCCCC1` ? 12.5 to 25 µg/mL

Which MIC is listed for `C=CCON=C(c1cccc(C(F)(F)F)c1)c1cc2c(cc1C(C)C)CC[C@H]1[C@](C)(C(=O)O)CCC[C@]21C` ? > 50 µg/mL

Which MIC is listed for `CC(C)c1cc2c(cc1C(=NOCc1ccccc1)c1ccccc1)[C@@]1(C)CCC[C@@](C)(C(=O)O)[C@@H]1CC2` ? > 50 µg/mL

Which MIC is listed for `CC(C)c1cc2c(cc1C(=NO)c1ccc(C(F)(F)F)cc1)[C@@]1(C)CCC[C@@](C)(C(=O)O)[C@@H]1CC2` ? > 50 µg/mL

Which MIC is listed for `CC(C)C(=NOCc1ccccc1)c1cc2c(cc1C(C)C)CC[C@H]1[C@](C)(C(=O)O)CCC[C@]21C` ? > 50 µg/mL

Which MIC is listed for `CO/N=C(/c1cc2c(cc1C(C)C)CC[C@H]1[C@](C)(C(=O)O)CCC[C@]21C)C(C)C` ? 30 to 40 µg/mL

Which MIC is listed for `CON=C(c1cc2c(cc1C(C)C)CC[C@H]1[C@](C)(C(=O)O)CCC[C@]21C)C1CCCCC1` ? > 50 µg/mL

Which MIC is listed for `C/C(=N\OCc1ccccc1)c1cc2c(cc1C(C)C)CC[C@H]1[C@](C)(C(=O)O)CCC[C@]21C` ? > 50 µg/mL

Which MIC is listed for `C=CCON=C(c1ccc(Cl)cc1Cl)c1cc2c(cc1C(C)C)CC[C@H]1[C@](C)(C(=O)O)CCC[C@]21C` ? 1.56 to 3.13 µg/mL

Which MIC is listed for `C=CCON=C(CCC)c1cc2c(cc1C(C)C)CC[C@H]1[C@](C)(C(=O)O)CCC[C@]21C` ? 10 to 12.5 µg/mL

Which MIC is listed for `C#CCON=C(c1cccs1)c1cc2c(cc1C(C)C)CC[C@H]1[C@](C)(C(=O)O)CCC[C@]21C` ? 1.56 to 3.13 µg/mL

Which MIC is listed for `CON=C(c1cccs1)c1cc2c(cc1C(C)C)CC[C@H]1[C@](C)(C(=O)O)CCC[C@]21C` ? 6.25 to 12.5 µg/mL

Which MIC is listed for `C=CCON=C(c1ccccc1)c1cc2c(cc1C(C)C)CC[C@H]1[C@](C)(C(=O)O)CCC[C@]21C` ? 1.25 to 2.5 µg/mL

// data source = ChEMBL document CHEMBL3864157
